Cited source for all entries: patent US9326506B2

The entries below are paired with their reported Weight of root.
# Tested on: rice
# EXPERIMENT NOTES: Low temperature assay on rice seedlings
# Type: in vivo
# CONDITION SET: 0.0001 mg/l, 4 °C, 9 days
# output: bare number, implied unit g

Study these solved cases before continuing.
- COMPOUND: "C=C(C(C)C)[C@@H](O)[C@H](O)[C@@H](C)[C@H]1CCC2C3COC(=O)C4C[C@H](O)[C@H](O)C[C@]4(C)C3CC[C@@]21C (stereo partly drawn)"
  MEASURED ON: "rice"
  MEASURED: 2.9
- COMPOUND: "CC(C)[C@H](C)[C@@H](O)[C@H](O)[C@@H](C)[C@H]1CCC2C3CC(=O)C4C[C@H](O)CC[C@]4(C)C3CC[C@@]21C (stereo partly drawn)"
  MEASURED ON: "rice"
  MEASURED: 2.9

Input line: I'd like to know its Weight of root. The compound in question is `CC(C)(O)CC[C@@H](O)[C@](C)(O)[C@H]1CC[C@@]2(O)[C@@H]3CC(=O)[C@@H]4C[C@@H](O)[C@@H](O)C[C@]4(C)[C@H]3CC[C@]12C`
Output line: 2.8

###

Reported Height values for the following compounds.
# Test system: rice
# EXPERIMENT NOTES: Low temperature assay on rice seedlings
# Format: in vivo
# CONDITION SET: 0.01 mg/l, 3 °C, 12 days

Input line: Height lookup needed for CC(C)[C@H](C)[C@@H](O)[C@H](O)[C@@H](C)[C@H]1CCC2C3COC(=O)C4C[C@H](O)[C@H](O)C[C@]4(C)C3CC[C@@]21C (stereo partly drawn) , thanks.
Output line: 7.6 cm

Input line: How about CC(C)[C@H](C)[C@@H](O)[C@H](O)[C@@H](C)[C@H]1CCC2C3CC(=O)C4C[C@H](O)CC[C@]4(C)C3CC[C@@]21C (stereo partly drawn) ?
Output line: 7.8 cm

Input line: Proceed to CC(C)C[C@@H](O)[C@H](O)[C@@H](C)[C@H]1CCC2C3CC(=O)C4C[C@H](O)[C@H](O)C[C@]4(C)C3CC[C@@]21C (stereo partly drawn)
Output line: 7.9 cm

Input line: And C=C(C(C)C)[C@@H](O)[C@H](O)[C@@H](C)[C@H]1CCC2C3COC(=O)C4C[C@H](O)[C@H](O)C[C@]4(C)C3CC[C@@]21C (stereo partly drawn) ?
Output line: 7.8 cm

Input line: Same again, this time with CC[C@@H](C(C)C)[C@@H](O)[C@H](O)[C@@H](C)[C@H]1CCC2C3COC(=O)C4C[C@H](O)[C@H](O)C[C@]4(C)C3CC[C@@]21C (stereo partly drawn)
Output line: 7.9 cm

Input line: // same read-out, input: `CC(C)(O)CC[C@@H](O)[C@](C)(O)[C@H]1CC[C@@]2(O)[C@@H]3CC(=O)[C@@H]4C[C@@H](O)[C@@H](O)C[C@]4(C)[C@H]3CC[C@]12C`
Output line: 7.6 cm

###

Listing of recorded Number of leaf by entry.
# Tested on: rice
# EXPERIMENT NOTES: Low temperature assay on rice seedlings
# Format: in vivo
# CONDITION SET: 0.001 mg/l, 4 °C, 12 days
Write the number on its own, no unit after it.

Here is how some molecules turned out for Number of leaf.
- MOLECULE: "CC(C)[C@H](C)[C@@H](O)[C@H](O)[C@@H](C)[C@H]1CCC2C3COC(=O)C4C[C@H](O)[C@H](O)C[C@]4(C)C3CC[C@@]21C (stereo partly drawn) [BR1]"
  Number of leaf: 3
- MOLECULE: "CC(C)[C@H](C)[C@@H](O)[C@H](O)[C@@H](C)[C@H]1CCC2C3CC(=O)C4C[C@H](O)CC[C@]4(C)C3CC[C@@]21C (stereo partly drawn) [BR4]"
  Number of leaf: 3

Attention now turns to another entry.
Input line: Field request: Number of leaf | item: CC[C@@H](C(C)C)[C@@H](O)[C@H](O)[C@@H](C)[C@H]1CCC2C3COC(=O)C4C[C@H](O)[C@H](O)C[C@]4(C)C3CC[C@@]21C (stereo partly drawn) [BR2]
Output line: 3

###

Overview of recorded Number of leaf for various compounds
# System: rice
# EXPERIMENT NOTES: Low temperature assay on rice seedlings
# Assay type: in vivo
# CONDITION SET: 0.001 mg/l, 3 °C, 12 days
Lab note: jot the number down without any unit.

Recorded Number of leaf, per entry:
- COMPOUND: "C=C(C(C)C)[C@@H](O)[C@H](O)[C@@H](C)[C@H]1CCC2C3COC(=O)C4C[C@H](O)[C@H](O)C[C@]4(C)C3CC[C@@]21C (stereo partly drawn) [BR3]"
  REPORTED PROPERTY: "Number of leaf"
  MEASURED: 3
- COMPOUND: "CC[C@@H](C(C)C)[C@@H](O)[C@H](O)[C@@H](C)[C@H]1CCC2C3COC(=O)C4C[C@H](O)[C@H](O)C[C@]4(C)C3CC[C@@]21C (stereo partly drawn) [BR2]"
  REPORTED PROPERTY: "Number of leaf"
  MEASURED: 3
- COMPOUND: "CC(C)(O)CC[C@@H](O)[C@](C)(O)[C@H]1CC[C@@]2(O)[C@@H]3CC(=O)[C@@H]4C[C@@H](O)[C@@H](O)C[C@]4(C)[C@H]3CC[C@]12C [BR6]"
  REPORTED PROPERTY: "Number of leaf"
  MEASURED: 3
- COMPOUND: "CC(C)C[C@@H](O)[C@H](O)[C@@H](C)[C@H]1CCC2C3CC(=O)C4C[C@H](O)[C@H](O)C[C@]4(C)C3CC[C@@]21C (stereo partly drawn) [BR5]"
  REPORTED PROPERTY: "Number of leaf"
  MEASURED: 3
- COMPOUND: "CC(C)[C@H](C)[C@@H](O)[C@H](O)[C@@H](C)[C@H]1CCC2C3COC(=O)C4C[C@H](O)[C@H](O)C[C@]4(C)C3CC[C@@]21C (stereo partly drawn) [BR1]"
  REPORTED PROPERTY: "Number of leaf"
  MEASURED: 3

Kindly review the next compound as well.
Input line: Any idea what Number of leaf came out for CC(C)[C@H](C)[C@@H](O)[C@H](O)[C@@H](C)[C@H]1CCC2C3CC(=O)C4C[C@H](O)CC[C@]4(C)C3CC[C@@]21C (stereo partly drawn) [BR4] on rice?
Output line: 3

###

Each entry below carries its recorded Area of leaf.
# Tested on: rice
# EXPERIMENT NOTES: Low temperature assay on rice seedlings
# Format: in vivo
# CONDITION SET: 0.1 mg/l, 4 °C, 9 days
# Description: According to a low temperature assay, we measured parameters including plant height, number of leaf, area of leaf, number of tiller, weight of root at low temperature to completely determine effects of the natural brassinolide analogues on the resistance to low temperature of a plant. The natural brassinolide analogues, BR1, BR2, BR3, BR4, BR5 and BR6, used herein, were those prepared by the method of Example 1. […]
Write the value in cm^2 as a bare number.

- COMPOUND: "CC(C)C[C@@H](O)[C@H](O)[C@@H](C)[C@H]1CCC2C3CC(=O)C4C[C@H](O)[C@H](O)C[C@]4(C)C3CC[C@@]21C (stereo partly drawn) [BR5]"
  MEASURED ON: "rice"
  UNIT OF MEASUREMENT: "cm^2"
  MEASURED: 13.2
- COMPOUND: "CC(C)[C@H](C)[C@@H](O)[C@H](O)[C@@H](C)[C@H]1CCC2C3CC(=O)C4C[C@H](O)CC[C@]4(C)C3CC[C@@]21C (stereo partly drawn) [BR4]"
  MEASURED ON: "rice"
  UNIT OF MEASUREMENT: "cm^2"
  MEASURED: 13.2
- COMPOUND: "CC(C)(O)CC[C@@H](O)[C@](C)(O)[C@H]1CC[C@@]2(O)[C@@H]3CC(=O)[C@@H]4C[C@@H](O)[C@@H](O)C[C@]4(C)[C@H]3CC[C@]12C [BR6]"
  MEASURED ON: "rice"
  UNIT OF MEASUREMENT: "cm^2"
  MEASURED: 13.5
- COMPOUND: "C=C(C(C)C)[C@@H](O)[C@H](O)[C@@H](C)[C@H]1CCC2C3COC(=O)C4C[C@H](O)[C@H](O)C[C@]4(C)C3CC[C@@]21C (stereo partly drawn) [BR3]"
  MEASURED ON: "rice"
  UNIT OF MEASUREMENT: "cm^2"
  MEASURED: 13.4
- COMPOUND: "CC[C@@H](C(C)C)[C@@H](O)[C@H](O)[C@@H](C)[C@H]1CCC2C3COC(=O)C4C[C@H](O)[C@H](O)C[C@]4(C)C3CC[C@@]21C (stereo partly drawn) [BR2]"
  MEASURED ON: "rice"
  UNIT OF MEASUREMENT: "cm^2"
  MEASURED: 13.4

Would you kindly look at the next entry?
Input line: What does the record list as Area of leaf for CC(C)[C@H](C)[C@@H](O)[C@H](O)[C@@H](C)[C@H]1CCC2C3COC(=O)C4C[C@H](O)[C@H](O)C[C@]4(C)C3CC[C@@]21C (stereo partly drawn) [BR1] ?
Output line: 13.5
